# procedureSummary: Plasma clearance in Sprague-Dawley rat at 1 mg/kg, iv and 2 mg/kg, po
# Type: ADME, organism-based
measurementLabel: clearance (mL/min/kg)

>>> readoutvalue("CC(C)c1cc(Oc2c(Cl)cc(NC(=O)c3noc(=O)[nH]3)cc2Cl)nn(C)c1=O")
13

###

# procedureSummary: Volume of distribution at steady state in Sprague-Dawley rat at 1 mg/kg, iv and 2 mg/kg, po
# Format: ADME, organism-based
# measurementParameters: in vivo, read-out: Vdss
measurementLabel: Vd (L/kg)

>>> readoutvalue("CC(C)c1cc(Oc2c(Cl)cc(NC(=O)c3noc(=O)[nH]3)cc2Cl)nn(C)c1=O")
0.53
